The entries below are paired with their reported Ki.
Target: Adenosine receptor A1 (Rattus norvegicus)
Assay: Affinity for adenosine A1 receptor was determined, in the presence of GTP in rat brain cortex
Type: tissue-based
Units required after the number.

compound	experimentalEndpoint	reportedValue
O=C(CCc1ccccc1)N[C@H]1C(CO)O[C@@H](n2cnc3c(NC4CCCC4)ncnc32)[C@@H]1O (single isomer, unassigned)	Ki	0.35 µM
Nc1ncnc2c1ncn2C1OC(CO)[C@H](NC(=O)CCCCc2ccccc2)C1O (some centres not stated)	Ki	5.74 µM
Nc1ncnc2c1ncn2[C@@H]1OC(CO)[C@H](NC(=O)c2ccccc2)[C@H]1O (single isomer, unassigned)	Ki	11.1 µM
O=C(N[C@H]1C(CO)O[C@@H](n2cnc3c(NC4CCCC4)ncnc32)[C@@H]1O)c1ccc([N+](=O)[O-])cc1 (single isomer, unassigned)	Ki	0.74 µM
[N-]=[N+]=N[C@@H]1[C@@H](O)[C@H](n2cnc3c(NC4CCCC4)ncnc32)O[C@@H]1CO	Ki	11.2 µM
Nc1ncnc2c1ncn2[C@@H]1OC(CO)[C@H](NC(=O)CCOc2ccccc2)[C@H]1O (single isomer, unassigned)	Ki	12.6 µM

Kindly consider the entry below.
q: Please give measured Ki of the following entry: COc1ccc(C(=O)N[C@H]2C(CO)OC(n3cnc4c(NC5CCCC5)ncnc43)C2O)cc1 (some centres not stated)
a: 0.13 µM

====

Biological target: UniProtKB P25099
Assay: GTP shift ratio of the apparent Ki values in the presence and absence of GTP.
experimentalEndpoint: Ratio
Just the number, please.

molecule	targetEntity	Ratio
O=C(N[C@H]1C(CO)O[C@@H](n2cnc3c(NC4CCCC4)ncnc32)[C@@H]1O)c1ccc(Cl)c(Cl)c1 (single isomer, unassigned)	UniProtKB P25099	0.73
O=C(N[C@H]1C(CO)O[C@@H](n2cnc3c(NC4CCCC4)ncnc32)[C@@H]1O)c1ccc([N+](=O)[O-])cc1 (single isomer, unassigned)	UniProtKB P25099	0.91
Nc1ncnc2c1ncn2[C@@H]1OC(CO)[C@H](NC(=O)CCCC2CCCCC2)[C@H]1O (single isomer, unassigned)	UniProtKB P25099	0.75
Nc1ncnc2c1ncn2[C@@H]1OC(CO)[C@H](NC(=O)c2ccccc2)[C@H]1O (single isomer, unassigned)	UniProtKB P25099	1.1
O=C(CCCc1ccccc1)N[C@H]1C(CO)O[C@@H](n2cnc3c(NC4CCCC4)ncnc32)[C@@H]1O (single isomer, unassigned)	UniProtKB P25099	0.94
Cc1ccc(C(=O)N[C@H]2C(CO)OC(n3cnc4c(NC5CCCC5)ncnc43)C2O)cc1 (some centres not stated)	UniProtKB P25099	0.84

q: Using UniProtKB P25099 as the test system, report measured Ratio of O=C(N[C@H]1C(CO)O[C@@H](n2cnc3c(NC4CCCC4)ncnc32)[C@@H]1O)c1ccc(Cl)cc1 (single isomer, unassigned) .
a: 0.87

====

Reported Ki values follow for various compounds
Target: Adenosine receptor A1 (Rattus norvegicus, UniProt P25099)
Sequence (P25099 whole entry): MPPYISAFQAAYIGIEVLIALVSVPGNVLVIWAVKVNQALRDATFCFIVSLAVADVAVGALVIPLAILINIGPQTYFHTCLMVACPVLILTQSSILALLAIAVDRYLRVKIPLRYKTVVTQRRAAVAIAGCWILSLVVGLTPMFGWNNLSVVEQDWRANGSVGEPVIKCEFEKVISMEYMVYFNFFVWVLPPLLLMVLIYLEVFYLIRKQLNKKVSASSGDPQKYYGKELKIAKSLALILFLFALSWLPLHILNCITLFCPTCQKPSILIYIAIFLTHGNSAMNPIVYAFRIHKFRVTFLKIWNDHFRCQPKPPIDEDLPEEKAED
Test: Affinity for adenosine A1 receptor was determined, in the presence of GTP in rat brain cortex
Type: tissue-based
Number only, in µM; omit the unit.

Worked examples, 6 compounds total:
compound	unitTag	Ki
Nc1ncnc2c1ncn2[C@@H]1OC(CO)[C@H](NC(=O)CCCC2CCCCC2)[C@H]1O (single isomer, unassigned)	µM	2.68
Cc1ccc(C(=O)N[C@H]2C(CO)OC(n3cnc4c(NC5CCCC5)ncnc43)C2O)cc1 (some centres not stated)	µM	0.068
O=C(Cc1ccccc1)N[C@H]1C(CO)OC(n2cnc3c(NC4CCCC4)ncnc32)C1O (some centres not stated)	µM	0.77
O=C(CCCCc1ccccc1)N[C@H]1C(CO)O[C@@H](n2cnc3c(NC4CCCC4)ncnc32)[C@@H]1O (single isomer, unassigned)	µM	0.2
O=C(CCCc1ccccc1)N[C@H]1C(CO)O[C@@H](n2cnc3c(NC4CCCC4)ncnc32)[C@@H]1O (single isomer, unassigned)	µM	0.1
O=C(CCCC1CCCCC1)N[C@H]1C(CO)OC(n2cnc3c(NC4CCCC4)ncnc32)C1O (some centres not stated)	µM	0.15

# next compound below
q: Supply measured Ki of O=C(N[C@H]1C(CO)O[C@@H](n2cnc3c(NC4CCCC4)ncnc32)[C@@H]1O)c1ccc(Cl)cc1 (single isomer, unassigned) in your reply.
a: 0.081

====

Each entry below carries its reported Ki.
Molecular target: UniProt:P25099
Experiment: Affinity for adenosine A1 receptor was determined, in the absence of GTP in rat cortical membrane.
Format: cell membranes
Answer format: numeric, nM implied, no suffix.

Here is how some molecules turned out for Ki.
molecule	unitTag	Ki
O=C(Cc1ccccc1)N[C@H]1C(CO)OC(n2cnc3c(NC4CCCC4)ncnc32)C1O (stereo partly specified)	nM	850
O=C(N[C@H]1C(CO)O[C@@H](n2cnc3c(NC4CCCC4)ncnc32)[C@@H]1O)c1ccc(Cl)cc1 (single isomer, unassigned)	nM	110
O=C(CCc1ccccc1)N[C@H]1C(CO)O[C@@H](n2cnc3c(NC4CCCC4)ncnc32)[C@@H]1O (single isomer, unassigned)	nM	370
O=C(CCCc1ccccc1)N[C@H]1C(CO)O[C@@H](n2cnc3c(NC4CCCC4)ncnc32)[C@@H]1O (single isomer, unassigned)	nM	130
Nc1ncnc2c1ncn2[C@@H]1OC(CO)[C@H](NC(=O)CCCC2CCCCC2)[C@H]1O (single isomer, unassigned)	nM	3590

q: Report Ki for Nc1ncnc2c1ncn2C1OC(CO)[C@H](NC(=O)CCCCc2ccccc2)C1O (stereo partly specified)
a: 7840

====

Target: Adenosine receptor A1 (Rattus norvegicus, UniProt P25099)
Test: Affinity for adenosine A1 receptor was determined, in the absence of GTP in rat cortical membrane.
Format: cell membranes
experimentalEndpoint: log10(Ki) (log10 of the value in nM)
On a log10 scale: recorded Ki, unit nM.

Reference set (3 entries):
compound	log10(Ki)
O=C(CCCCc1ccccc1)N[C@H]1C(CO)O[C@@H](n2cnc3c(NC4CCCC4)ncnc32)[C@@H]1O (single isomer, unassigned)	2.38
Nc1ncnc2c1ncn2[C@@H]1OC(CO)[C@H](NC(=O)c2ccccc2)[C@H]1O (single isomer, unassigned)	4.04
[N-]=[N+]=N[C@@H]1[C@@H](O)[C@H](n2cnc3c(NC4CCCC4)ncnc32)O[C@@H]1CO	3.93

q: Recall and state the measured log10(Ki) for Cc1ccc(C(=O)N[C@H]2C(CO)OC(n3cnc4c(NC5CCCC5)ncnc43)C2O)cc1 (some centres not stated) .
a: 1.92

q: Kindly indicate its recorded log10(Ki). Item: O=C(CCCC1CCCCC1)N[C@H]1C(CO)OC(n2cnc3c(NC4CCCC4)ncnc32)C1O (some centres not stated)
a: 2.28

q: Identify the reported log10(Ki) for the following entry. COc1ccc(C(=O)N[C@H]2C(CO)OC(n3cnc4c(NC5CCCC5)ncnc43)C2O)cc1 (some centres not stated)
a: 2.30

q: Give the reported value of log10(Ki) for this record: O=C(N[C@H]1C(CO)O[C@@H](n2cnc3c(NC4CCCC4)ncnc32)[C@@H]1O)c1ccc([N+](=O)[O-])cc1 (single isomer, unassigned)
a: 2.91

====

Target: Adenosine receptor A2a (Rattus norvegicus, UniProt P30543)
Sequence (P30543 whole entry): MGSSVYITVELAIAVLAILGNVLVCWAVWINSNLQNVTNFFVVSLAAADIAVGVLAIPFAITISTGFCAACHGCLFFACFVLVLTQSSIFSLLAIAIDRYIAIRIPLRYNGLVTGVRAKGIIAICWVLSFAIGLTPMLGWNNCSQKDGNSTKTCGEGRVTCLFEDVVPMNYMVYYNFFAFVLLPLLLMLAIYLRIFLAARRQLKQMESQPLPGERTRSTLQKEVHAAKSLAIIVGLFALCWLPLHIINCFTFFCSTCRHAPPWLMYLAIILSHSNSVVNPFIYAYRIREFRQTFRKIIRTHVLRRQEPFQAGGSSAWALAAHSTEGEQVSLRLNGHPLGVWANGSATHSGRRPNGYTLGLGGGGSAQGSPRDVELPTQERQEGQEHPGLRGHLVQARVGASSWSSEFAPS
Catalogue of compounds with associated Ki
Just the number in µM, nothing appended.

compound	targetEntity	unitTag	reportedValue
COc1ccc(C(=O)N[C@H]2C(CO)OC(n3cnc4c(NC5CCCC5)ncnc43)C2O)cc1 (stereo partly specified)	Adenosine receptor A2a (Rattus norvegicus, UniProt P30543)	µM	0.77

q: Give Ki for this entry on Adenosine receptor A2a (Rattus norvegicus, UniProt P30543): O=C(CCc1ccccc1)N[C@H]1C(CO)O[C@@H](n2cnc3c(NC4CCCC4)ncnc32)[C@@H]1O (single isomer, unassigned)
a: 7.94

q: State measured Ki of the compound O=C(N[C@H]1C(CO)O[C@@H](n2cnc3c(NC4CCCC4)ncnc32)[C@@H]1O)c1ccc(Cl)c(Cl)c1 (single isomer, unassigned) with Adenosine receptor A2a (Rattus norvegicus, UniProt P30543).
a: 2.02

q: System Adenosine receptor A2a (Rattus norvegicus, UniProt P30543). Read-out Ki. Item Nc1ncnc2c1ncn2C1OC(CO)[C@H](NC(=O)CCCCc2ccccc2)C1O (stereo partly specified) . Report value.
a: 4.66

q: Please look at Nc1ncnc2c1ncn2[C@@H]1OC(CO)[C@H](NC(=O)CCOc2ccccc2)[C@H]1O (single isomer, unassigned) and tell me its recorded Ki on Adenosine receptor A2a (Rattus norvegicus, UniProt P30543).
a: 11.8

q: GET Ki where system = Adenosine receptor A2a (Rattus norvegicus, UniProt P30543) and item = Nc1ncnc2c1ncn2[C@@H]1OC(CO)[C@H](NC(=O)CCCC2CCCCC2)[C@H]1O (single isomer, unassigned)
a: 1.77

Data provenance is ChEMBL document CHEMBL1130233.
